- Format: in vivo, Sprague–Dawley rat
- Run Parameters: male, Sprague-Dawley, rat, plasma, po, 10 mg/kg
Quantity Measured: Tmax (h)
Response body: numeric value in h, unit text excluded.

Query block: Which Tmax reading was recorded for the molecule O=C(NC[C@H]1CN(c2ccc(N3CCOCC3=O)cc2)C(=O)O1)c1ccc(Cl)s1 [rivaroxaban] ?
Result block: 3.4

###

- Assayed System: rivaroxaban metabolism in rat liver microsomes (RLMs)
- Procedure Details: Inhibition of rivaroxaban metabolism by naringenin in rat liver microsomes
- Run Parameters: RLMs, rivaroxaban 5-40 μM, naringenin 0-80 μM, Lineweaver-Burk plot
Quantity Measured: Ki (µM)
Numbers only here, please. The scale is µM.

Query block: So what does the record say about Ki for O=C1C[C@@H](c2ccc(O)cc2)Oc2cc(O)cc(O)c21 ?
Result block: 54.9

Data origin, for the record: paper PMC8099043
